experiment: DUSP6 inhibitors restoring Erk phosphorylation by chemical complementation, primary imaging in DUSP6-transfected HeLa (AID 609); conditions: HeLa MKP-3 transfected, phospho-Erk imaging KS statistic; measured here: nuclear pErk red intensity z-score; at 10 µM; stronger effect = higher value; cells stimulated with TPA for 15 min
Would you please tag the item label 1 when its z-score is -0.2 or above, and label 0 when it is below?

# compound, label class
measured = [
    ("COc1ccc(-c2nnc3sc(-c4c(OC)cccc4OC)nn23)cc1", "label 1"),
]

# input Check this compound for z-score at or above -0.2: COc1cc(-c2nn3c(-c4cccnc4)nnc3s2)cc(OC)c1OC
# output label 0

# input Determine whether measured z-score meets or exceeds -0.2 for CC(C)Oc1ccc(/C(O)=C2/C(=O)C(=O)N(CCN3CCOCC3)C2c2ccccc2)cc1 (stereo not drawn)
# output label 1

# input Determine whether this compound has z-score no lower than -0.2: CCOc1cccc(-c2nn3c(-c4ccco4)nnc3s2)c1
# output label 0

# input Decide: is the reported value of z-score for Cc1cc(C(F)(F)F)c(C#N)c(SCC(=O)NC2CC2)n1 equal to or greater than -0.2?
# output label 0

# input Hello, I need to know if CSc1nc2sc3c(c2c(=O)n1C1CCCCC1)CCN(C)C3 has measured z-score not below -0.2. Thanks!
# output label 0

# input Given Cc1cc(=O)oc(C)c1C(=O)Nc1cccc2nonc12 , state whether its z-score is at least -0.2.
# output label 1

# input Textbook exercise: given the entry COc1ccccc1N1C(=O)C2ON(c3ccccc3)C(c3ccc(N(C)C)cc3)C2C1=O (stereo not drawn) , state whether its z-score is greater than or equal to -0.2.
# output label 1

# input Tell me whether z-score is at least -0.2 here: CCn1cc(C(=O)NCCc2ccccc2)c(=O)c2cc(F)c(N3CCN(C)CC3)cc21
# output label 1

# input Check if z-score >= -0.2 (inclusive). Item: O=C(CN1C(=O)c2ccccc2C1=O)NCc1ccccn1
# output label 1

# input Please tell me: is the compound CCn1cc(C(=O)O)c(=O)c2cc(F)c(N3CCNCC3)nc21 at or over -0.2 in terms of z-score?
# output label 0

# input Hi team, for Cc1cc(C)n(CC(=O)n2nc(C)cc2C)n1 , is the recorded z-score at or above -0.2?
# output label 1

# input For this compound, is measured z-score -0.2 or higher? COc1cc(C2C(C#N)=C(N)Oc3cc(C)n(CCN4CCOCC4)c(=O)c32)cc(OC)c1OC (stereo not drawn)
# output label 0

----------
Reported values of NADPH fluorescence slope for individual entries
molecular target: Voltage-gated potassium channel subunit beta-2 (Rattus norvegicus); experiment: KvBeta positive modulators, primary screen, biochemical, NADPH fluorescence (AID 623); conditions: Recombinant KvBeta, NADPH fluorescence decrease slope, 10 min; at 10 µM; stronger effect = lower value;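 note: fluorescence intensity change per second fitted from 20 to 320 s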
Response field accepts a number only; no unit should be typed.

As a guide, the following entries are already answered.
# compound, NADPH fluorescence slope
records = [
    ("COc1ccc(-c2c3c([nH]c(=S)c2C#N)CCC3)cc1", "-4.4e-06"),
    ("COc1ccc(C(=O)NCCCCCC(=O)O)cc1OC", "-3.8e-05"),
    ("COc1ccc(C2=Nn3c(nnc3-c3cccnc3)SC2)cc1OC", -0.000172),
    ("COC(=O)CN(c1cc(OC)ccc1OC)S(=O)(=O)c1ccc(OC)c(OC)c1", -0.000193),
    ("CC1=C(/C=C/C(C)=C/C=C/C(C)=C/C(=O)O)C(C)(C)CCC1", "-4.4e-05"),
    ("Cc1nc2sccn2c(=O)c1CCN1CCC(=C(c2ccc(F)cc2)c2ccc(F)cc2)CC1", "-4.2e-05"),
]

# input Checklist item: NADPH fluorescence slope tested on Voltage-gated potassium channel subunit beta-2 (Rattus norvegicus), entry CC(C)N1CC=C2C(C#N)=C(N)C(C#N)(C#N)C(c3ccccc3)C2C1 (stereo not drawn) , value?
# output -2.3e-05

# input Write down the reported NADPH fluorescence slope of C(=N\n1cnnc1)/c1cccnc1 , test system: Voltage-gated potassium channel subunit beta-2 (Rattus norvegicus).
# output -0.000114

# input Find NADPH fluorescence slope (Voltage-gated potassium channel subunit beta-2 (Rattus norvegicus)) for the entry CC(=O)OCC(=O)[C@@]1(OC(C)=O)[C@@H](C)C[C@H]2[C@@H]3C[C@H](F)C4=CC(=O)C=C[C@]4(C)[C@@]3(F)[C@@H](O)C[C@@]21C
# output -7.3e-05

# input Which NADPH fluorescence slope is reported with Voltage-gated potassium channel subunit beta-2 (Rattus norvegicus) for this entry: C1CCCN(CCCCN2CCCCCC2)CC1 ?
# output -0.000347

# input Lab request: please report NADPH fluorescence slope under test system Voltage-gated potassium channel subunit beta-2 (Rattus norvegicus) for C=CCOC(=O)C1=C(C)OC(N)=C(C#N)C1c1ccoc1 (stereo not drawn)
# output 2.2e-05

# input Tell me reported NADPH fluorescence slope for N#Cc1c(SCC(N)=O)nsc1SCc1ccc(Cl)cc1 , tested with Voltage-gated potassium channel subunit beta-2 (Rattus norvegicus).
# output -1.2e-05
